Measured Kdis by item
Molecular target: T1, hAng2 (Homo sapiens, UniProt O15123)
T1 sequence (O15123 19-496): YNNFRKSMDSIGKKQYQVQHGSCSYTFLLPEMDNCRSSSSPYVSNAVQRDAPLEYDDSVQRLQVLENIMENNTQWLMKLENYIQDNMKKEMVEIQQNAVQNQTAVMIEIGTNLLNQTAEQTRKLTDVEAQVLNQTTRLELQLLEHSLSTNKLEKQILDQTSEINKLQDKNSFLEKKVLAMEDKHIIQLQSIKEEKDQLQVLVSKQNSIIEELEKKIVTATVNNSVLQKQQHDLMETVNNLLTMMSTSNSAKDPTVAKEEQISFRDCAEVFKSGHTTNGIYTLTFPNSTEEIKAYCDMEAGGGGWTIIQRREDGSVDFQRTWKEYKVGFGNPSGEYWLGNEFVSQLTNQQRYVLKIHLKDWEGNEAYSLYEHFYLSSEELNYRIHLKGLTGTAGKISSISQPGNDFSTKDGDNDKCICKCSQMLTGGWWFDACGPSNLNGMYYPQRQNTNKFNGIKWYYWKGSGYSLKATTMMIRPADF
Test: OCTET affinity of humanized anti-Ang2 antibodies against hAng2
Format: binding
Details: OCTET, antibody fixed on AR2G biosensor, hAng2 50-0 nM, 1:1 binding model

>  <molecule>
2C8H53: humanized anti-Ang2 antibody from mouse 2C8; VH SEQ ID NO: 111, VL SEQ ID NO: 112 (antibody, V domains shown, VH; VL) VH: QVQLVQSGAEVKKPGASVKVSCKASGYSFTSYWMHWVKQAPGQGLEWIGMIDPSDSETRLNQKFKDKASLTVDTSTSTVYMELSSLRSEDTAVYYCARRFYYGSDWYFDVWGQGTLVTVSS VL: DIQLTQSPSFLSASVGDRVSITCKASQDVGTAVAWYQQKPGKAPKLLIYWASTRHTGVPDRFSGSGSGTEFTLTISSLQPEDFADYFCQQYSSYPLTFGQGTKVEIK

>  <Kdis [s⁻¹]>
3.11e-05

$$$$
>  <molecule>
2C8H52: humanized anti-Ang2 antibody from mouse 2C8; VH SEQ ID NO: 91, VL SEQ ID NO: 92 (antibody, V domains shown, VH; VL) VH: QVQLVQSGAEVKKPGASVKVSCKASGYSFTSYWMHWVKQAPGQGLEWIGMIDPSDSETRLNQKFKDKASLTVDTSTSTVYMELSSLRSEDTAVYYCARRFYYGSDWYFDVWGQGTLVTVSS VL: DIQLTQSPSFLSASVGDRVSITCKASQDVGTAVAWYQQKPGKAPKLLIYWASTRHTGVPDRFSGSGSGTEFTLTISSLQPEDFATYYCQQYSSYPLTFGQGTKVEIK

>  <Kdis [s⁻¹]>
1.99e-05

$$$$
>  <molecule>
2C8H31: humanized anti-Ang2 antibody from mouse 2C8; VH SEQ ID NO: 63, VL SEQ ID NO: 64 (antibody, V domains shown, VH; VL) VH: QVQLVQSGAEVKKPGASVKVSCKASGYSFTSYWMHWVRQAPGQGLEWIGMIDPSDSETRLNQKFKDKASMTRDTSTSTVYMELSSLRSEDTAVYYCARRFYYGSDWYFDVWGQGTLVTVSS VL: DIQLTQSPSFLSASVGDRVTITCKASQDVGTAVAWYQQKPGKAPKLLIYWASTRHTGVPSRFSGSGSGTEFTLTISSLQPEDFATYYCQQYSSYPLTFGQGTKVEIK

>  <Kdis [s⁻¹]>
2.21e-05

$$$$
>  <molecule>
2C8H23: humanized anti-Ang2 antibody from mouse 2C8; VH SEQ ID NO: 99, VL SEQ ID NO: 100 (antibody, V domains shown, VH; VL) VH: QVQLVQSGAEVKKPGASVKVSCKASGYSFTSYWMHWVRQAPGQGLEWIGMIDPSDSETRLNQKFKDRVTMTRDTSTSTVYMELSSLRSEDTAVYYCARRFYYGSDWYFDVWGQGTLVTVSS VL: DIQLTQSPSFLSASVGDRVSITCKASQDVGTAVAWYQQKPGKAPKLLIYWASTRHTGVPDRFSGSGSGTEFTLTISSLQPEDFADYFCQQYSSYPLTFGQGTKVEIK

>  <Kdis [s⁻¹]>
2.28e-05

$$$$
>  <molecule>
2C8H32: humanized anti-Ang2 antibody from mouse 2C8; VH SEQ ID NO: 83, VL SEQ ID NO: 84 (antibody, V domains shown, VH; VL) VH: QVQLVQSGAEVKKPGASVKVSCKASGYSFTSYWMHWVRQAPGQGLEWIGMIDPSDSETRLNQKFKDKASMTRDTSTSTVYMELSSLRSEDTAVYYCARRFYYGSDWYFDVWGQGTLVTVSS VL: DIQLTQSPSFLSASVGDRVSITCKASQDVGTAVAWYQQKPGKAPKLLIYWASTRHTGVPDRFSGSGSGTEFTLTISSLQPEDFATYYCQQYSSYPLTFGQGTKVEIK

>  <Kdis [s⁻¹]>
1.49e-05

$$$$
>  <molecule>
2C8H33: humanized anti-Ang2 antibody from mouse 2C8; VH SEQ ID NO: 103, VL SEQ ID NO: 104 (antibody, V domains shown, VH; VL) VH: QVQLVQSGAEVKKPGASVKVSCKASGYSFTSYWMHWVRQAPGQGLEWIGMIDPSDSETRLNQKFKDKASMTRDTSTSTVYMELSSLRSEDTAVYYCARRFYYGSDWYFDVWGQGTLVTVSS VL: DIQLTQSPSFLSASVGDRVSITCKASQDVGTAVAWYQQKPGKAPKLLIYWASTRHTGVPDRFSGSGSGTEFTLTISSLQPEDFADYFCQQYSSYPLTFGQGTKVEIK

>  <Kdis [s⁻¹]>
3.99e-06

$$$$
>  <molecule>
2C8H43: humanized anti-Ang2 antibody from mouse 2C8; VH SEQ ID NO: 107, VL SEQ ID NO: 108 (antibody, V domains shown, VH; VL) VH: QVQLVQSGAEVKKPGASVKVSCKASGYSFTSYWMHWVKQAPGQGLEWIGMIDPSDSETRLNQKFKDKASMTRDTSTSTVYMELSSLRSEDTAVYYCARRFYYGSDWYFDVWGQGTLVTVSS VL: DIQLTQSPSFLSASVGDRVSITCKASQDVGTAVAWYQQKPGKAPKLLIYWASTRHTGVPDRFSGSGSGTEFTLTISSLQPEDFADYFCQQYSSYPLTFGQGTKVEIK

>  <Kdis [s⁻¹]>
2.65e-05

$$$$
>  <molecule>
2C8H41: humanized anti-Ang2 antibody from mouse 2C8; VH SEQ ID NO: 67, VL SEQ ID NO: 68 (antibody, V domains shown, VH; VL) VH: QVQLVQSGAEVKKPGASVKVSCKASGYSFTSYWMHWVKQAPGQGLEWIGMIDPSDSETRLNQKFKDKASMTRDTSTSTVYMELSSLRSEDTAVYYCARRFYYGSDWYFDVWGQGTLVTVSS VL: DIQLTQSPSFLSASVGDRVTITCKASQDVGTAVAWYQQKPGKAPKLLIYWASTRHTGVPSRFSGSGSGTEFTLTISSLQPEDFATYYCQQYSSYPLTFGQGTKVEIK

>  <Kdis [s⁻¹]>
1.67e-05

$$$$
>  <molecule>
2C8H22: humanized anti-Ang2 antibody from mouse 2C8; VH SEQ ID NO: 79, VL SEQ ID NO: 80 (antibody, V domains shown, VH; VL) VH: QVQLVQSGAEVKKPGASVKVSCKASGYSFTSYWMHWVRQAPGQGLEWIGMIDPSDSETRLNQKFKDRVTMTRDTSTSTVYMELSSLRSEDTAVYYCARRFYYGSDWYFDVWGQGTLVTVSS VL: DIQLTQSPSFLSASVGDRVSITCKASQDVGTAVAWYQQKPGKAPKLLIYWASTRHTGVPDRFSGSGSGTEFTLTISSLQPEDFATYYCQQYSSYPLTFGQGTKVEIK

>  <Kdis [s⁻¹]>
6.84e-06

$$$$
